Quick reference for pIC50 among some compounds
test system: Human rhinovirus 1A; assay: Concentration required to reduce Rhino virus type 1A induced plaque formation in HeLa cell culture to 50% of control; type: functional; settings: read-out: ID50 (the source's name)
pIC50: −log10 of the molar value.
PROPERTY: pIC50

>>> reported_measurement("CS(=O)(=O)c1cnc2c(c1)CCC(c1ccc(Cl)cc1)O2 (stereo not drawn)")
5.85
>>> reported_measurement("Clc1cnc2c(c1)CCC(c1ccc(Cl)c(Cl)c1)O2 (stereo not drawn)")
7.22
>>> reported_measurement("CS(=O)(=O)c1cnc2c(c1)CCC(c1ccc(Cl)c(Cl)c1)O2 (stereo not drawn)")
6.33

Cited source: ChEMBL document CHEMBL1123359
